System: ACHN
Experiment: NCI tumour cell line growth inhibition, 48 h
The source made the active and inactive calls. No stated cut-off is given here; in the data, active = GI50 up to about 1.1 µM and inactive = higher.
GI50 for assorted compounds

Here are 8 compounds together with their reported answers.
[
  {
    "compound": "O=C(N/C(=C\\c1cccc([N+](=O)[O-])c1)c1nc2c3c(ccc2[nH]1)C(=O)c1ccccc1C3=O)c1ccccc1",
    "GI50": "16.6 µM (inactive)"
  },
  {
    "compound": "O=C(O)C1CCCN1Cc1c[nH]c2ccccc12 (configuration not stated)",
    "GI50": "> 100 µM (inactive)"
  },
  {
    "compound": "O=c1[nH]/c(=C/c2ccc(OCc3ccccc3)cn2)c(=O)[nH]/c1=C/c1ccc(Cl)cc1",
    "GI50": "4.24 µM (inactive)"
  },
  {
    "compound": "CN1C(=O)[C@@]2(C=CC3(CC2)OCCO3)c2ccccc21",
    "GI50": "49.5 µM (inactive)"
  },
  {
    "compound": "CN(C)CCCNCc1cccc2ccccc12",
    "GI50": "> 100 µM (inactive)"
  },
  {
    "compound": "CCOC(=O)C(NC(=O)CC)(Nc1ccccc1OC)C(F)(F)F (configuration not stated)",
    "GI50": "> 100 µM (inactive)"
  },
  {
    "compound": "COc1ccc(/C=N/N=C(N)N)c(C(=O)O)c1OC",
    "GI50": "> 100 µM (inactive)"
  },
  {
    "compound": "CC(C)(CN)CN",
    "GI50": "> 100 µM (inactive)"
  }
]

q: Look up and report measured GI50 for this entry: CN(Cc1cc(Cl)c(Cl)cc1NC(=O)CN)[C@H]1CCCC[C@@H]1N1CCCC1
a: > 100 µM (inactive)

q: Look up and report measured GI50 for this entry: O=C(/C=C1\N=C(c2ccccc2)N(c2nc3ccc(Sc4ccccc4)cc3[nH]2)C1=O)/C=C/c1ccccc1
a: 52.7 µM (inactive)

q: Look up and report measured GI50 for this entry: CC(=O)OC1OC(c2ccoc2)C[C@@]12C1CCC3O[C@]3(C)[C@]1(C)[C@H](OC(C)=O)[C@H](OC(C)=O)[C@H]2C (some centres not stated)
a: > 37.5 µM (inactive)

q: Look up and report measured GI50 for this entry: CCCCCCCCCCOC(=O)NCCC
a: 28.8 µM (inactive)

q: Look up and report measured GI50 for this entry: Cc1ccc2cccc(-c3cccc4ccccc34)c2n1
a: 24.4 µM (inactive)

q: Look up and report measured GI50 for this entry: O=C(O)CSc1ccccc1C(=O)O
a: > 100 µM (inactive)

###

System: HOP-92
Experiment: NCI tumour cell line growth inhibition, 48 h
Calls of active or inactive are those of the source. Cut-off read from the data, not from the text of the source: active = GI50 up to about 1.1 µM and inactive = higher.
Return exactly one item of active, inactive

[
  {
    "compound": "COc1cc2c(c3c1c(=O)c1ccccc1n3C)C=C([N+](=O)[O-])C(C)(C)O2",
    "groupLabel": "active"
  },
  {
    "compound": "CC1(C)C(O)C[C@@H](O)[C@@]2(C)C1CC[C@]1(C)C2C[C@@H](O)[C@@H]2C([C@@]3(C)CC[C@@H](C(C)(C)O)O3)CCC21C (some centres not stated)",
    "groupLabel": "inactive"
  },
  {
    "compound": "O=C(N/C(=C\\c1cccc([N+](=O)[O-])c1)c1nc2c3c(ccc2[nH]1)C(=O)c1ccccc1C3=O)c1ccccc1",
    "groupLabel": "inactive"
  }
]

q: Fill in: this test's call for CC1=NN(C(=O)c2ccc(Cl)cc2)C(=O)/C1=C/c1cccc(O)c1 is ___
a: inactive

q: Fill in: this test's call for NS(=O)(=O)c1ccc(/N=N/c2cnc(O)c(O)c2)cc1 is ___
a: inactive

q: Fill in: this test's call for O=C1Nc2ccc(Br)cc2/C1=N/NC(=S)Nc1ccc([N+](=O)[O-])cc1 is ___
a: inactive

q: Fill in: this test's call for COc1ccc(S(=O)(=O)N/N=C(\C)CN2C(=O)c3ccccc3C2=O)cc1OC is ___
a: inactive

q: Fill in: this test's call for Cc1cc(C)cc(C(=N)c2ccccc2Cc2cccc3ccccc23)c1 is ___
a: inactive

q: Fill in: this test's call for COc1cc([C@@H]2c3cc4c(cc3[C@@H](NC(=O)c3ccccc3)C3COC(=O)[C@@H]32)OCO4)cc(OC)c1O (some centres not stated) is ___
a: inactive

q: Fill in: this test's call for Cc1c(C)c2c(c(N)c1C#N)C(=O)N(O)C2=O is ___
a: inactive
